target: PDE 10a (Homo sapiens, UniProt Q9Y233); construct: Full-length recombinant PDE 10a was expressed in Sf9 insect cells; experiment: In vitro enzyme inhibition assay (PDE 10a, scintillation proximity, [3H]cAMP substrate); details: full-length recombinant PDE 10a, crude Sf9 cell lysate; 60 minutes, room temperature
Sequence (Q9Y233 1-779 isoform Q9Y233-1): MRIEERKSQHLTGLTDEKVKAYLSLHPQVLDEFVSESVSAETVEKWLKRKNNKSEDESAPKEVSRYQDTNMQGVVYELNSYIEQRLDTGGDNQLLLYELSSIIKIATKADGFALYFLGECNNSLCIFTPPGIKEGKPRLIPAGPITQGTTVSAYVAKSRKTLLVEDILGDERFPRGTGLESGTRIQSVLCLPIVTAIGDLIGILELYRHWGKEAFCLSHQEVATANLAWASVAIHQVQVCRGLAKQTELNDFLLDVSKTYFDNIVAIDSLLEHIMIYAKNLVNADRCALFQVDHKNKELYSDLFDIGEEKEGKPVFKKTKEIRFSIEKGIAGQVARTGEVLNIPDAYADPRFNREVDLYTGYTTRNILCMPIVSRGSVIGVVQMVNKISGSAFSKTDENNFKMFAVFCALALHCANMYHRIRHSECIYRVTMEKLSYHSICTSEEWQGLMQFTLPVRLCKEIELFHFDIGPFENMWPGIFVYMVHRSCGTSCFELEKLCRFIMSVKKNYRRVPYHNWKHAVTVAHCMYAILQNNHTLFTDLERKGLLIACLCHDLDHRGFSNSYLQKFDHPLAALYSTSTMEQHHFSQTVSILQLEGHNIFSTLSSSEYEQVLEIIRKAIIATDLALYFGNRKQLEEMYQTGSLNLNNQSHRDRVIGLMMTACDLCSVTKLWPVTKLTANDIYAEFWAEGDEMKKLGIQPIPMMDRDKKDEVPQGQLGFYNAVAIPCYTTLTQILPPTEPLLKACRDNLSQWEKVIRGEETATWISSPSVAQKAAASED
Give log10 of IC50 for every item shown.
Could you please treat all values as log10 of IC50 in nM?

Task: For PDE 10a (Homo sapiens, UniProt Q9Y233), give log10 of IC50 of the listed molecule: "CCOC(=O)c1c(-c2cccc3c2ccn3CC)c(C)n2c1-c1cc(OC)c(OC)cc1CC2"
Output: 3.18

Task: Provide measured log10 of IC50 on PDE 10a (Homo sapiens, UniProt Q9Y233) for "CCOC(=O)c1c(-c2cn(Cc3ccccc3)c3ccccc23)c(C)n2c1-c1cc(OC)c(OC)cc1CC2" please.
Output: 1.83

Task: Provide log10 of IC50, system PDE 10a (Homo sapiens, UniProt Q9Y233), entry "CCOC(=O)c1c(-c2c[nH]c3c(OC)cccc23)c(C)n2c1-c1cc(OC)c(OC)cc1CC2"
Output: 2.34

Task: Recall the reported log10 of IC50 of "CCOC(=O)c1c(-c2cccc3ncc(C)cc23)c(C)n2c1-c1cc(OC)c(OC)cc1CC2" on PDE 10a (Homo sapiens, UniProt Q9Y233) and write it down.
Output: 2.15

Task: Enter log10 of IC50 (test system PDE 10a (Homo sapiens, UniProt Q9Y233)) for "CCOC(=O)c1c(C(C)C)c(C)n2c1-c1cc(OC)c(OC)cc1CC2"
Output: 2.57

Task: Specify the recorded log10 of IC50 for "CCOC(=O)c1c(-c2cccc3c2ccn3CCC#N)c(C)n2c1-c1cc(OC)c(OC)cc1CC2" , system: PDE 10a (Homo sapiens, UniProt Q9Y233).
Output: 2.30

Task: State the measured log10 of IC50 (PDE 10a (Homo sapiens, UniProt Q9Y233)) of "CCOC(=O)c1c(-c2c[nH]c3cc(F)ccc23)c(C)n2c1-c1cc(OC)c(OC)cc1CC2"
Output: 2.34

Task: Provide PDE 10a (Homo sapiens, UniProt Q9Y233) log10 of IC50 reading for "CCOC(=O)c1c(-c2cccc3cc[nH]c23)c(C)n2c1-c1cc(OC)c(OC)cc1CC2" .
Output: 2.04

Task: Report log10 of IC50 on PDE 10a (Homo sapiens, UniProt Q9Y233) for this entry: "CCOC(=O)c1c(-c2cn(C(C)=O)c3ccccc23)c(C)n2c1-c1cc(OC)c(OC)cc1CC2"
Output: 1.97

Task: // fetch log10 of IC50; item: "CCOC(=O)c1c(-c2cccc3c(C(=O)c4ccccc4)c[nH]c23)c(C)n2c1-c1cc(OC)c(OC)cc1CC2" ; system: PDE 10a (Homo sapiens, UniProt Q9Y233)
Output: 2.23

Task: Consider the molecule "CCOC(=O)c1c(-c2ccc3ncoc3c2)c(C)n2c1-c1cc(OC)c(OC)cc1CC2" tested on PDE 10a (Homo sapiens, UniProt Q9Y233); state its log10 of IC50.
Output: 2.18

Task: Give log10 of IC50; test system PDE 10a (Homo sapiens, UniProt Q9Y233); molecule "CCOC(=O)c1c(-c2cn(C)c3ccccc23)c(C)n2c1-c1cc(OC)c(OC)cc1CC2"
Output: 1.85

Task: Give PDE 10a (Homo sapiens, UniProt Q9Y233) log10 of IC50 for the following molecule: "CCOC(=O)c1c(-c2c[nH]c3ccc(Cl)cc23)c(C)n2c1-c1cc(OC)c(OC)cc1CC2"
Output: 2.52

Task: Report log10 of IC50 on PDE 10a (Homo sapiens, UniProt Q9Y233) for this entry: "CCOC(=O)c1c(-c2c[nH]c3ccc(OC)cc23)c(C)n2c1-c1cc(OC)c(OC)cc1CC2"
Output: 2.56

Task: Find log10 of IC50 for "CCCNC(=O)N1CCc2cc(-c3c(C(=O)OCC)c4n(c3C)CCc3cc(OC)c(OC)cc3-4)ccc21" on PDE 10a (Homo sapiens, UniProt Q9Y233) and write it down.
Output: 2.00
